Entries and their pEC50 values follow.
Target: E. coli gyrase GyrA^S83L (Escherichia coli, UniProt P0AES4+P0AES6, S83L)
Construct: alternative cryo-EM approach involving full-length E. coli gyrase; 10-His (cleaved yes); Twin-Strep (cleaved yes)
Assay: DNA gyrase cleavage assay (CC50, % cleaved DNA)
Conditions: GyrA^S83L; mean ± s.d. of triplicate
pEC50: −log10 of the molar value.
OBSERVED_PROPERTY: pEC50

{"MOLECULE": "COc1c(NC(=O)c2ccc(NC(=O)c3ccc(NC(=O)[C@H](CC#N)NC(=O)c4ccc(NC(=O)/C(C)=C/c5ccc(O)cc5)cc4)cc3)c(OC)c2O)ccc(C(=O)O)c1O [Albicidin]", "OBSERVED_PROPERTY": "pEC50", "TEST_RESULT": 6.89}
{"MOLECULE": "CC(C)Oc1c(NC(=O)c2ccc(NC(=O)[C@H](Cc3c[nH]nn3)NC(=O)c3ccc(NC(=O)c4ccc(C#N)cc4)cn3)cn2)ccc(C(=O)Nc2ccc(C(=O)O)cc2)c1O [Albi-1]", "OBSERVED_PROPERTY": "pEC50", "TEST_RESULT": 8.00}
{"MOLECULE": "COc1c(NC(=O)c2ccc(NC(=O)c3ccc(NC(=O)[C@H](Cc4c[nH]nn4)NC(=O)c4ccc(NC(=O)c5ccc6nc(C)ccc6c5)cc4)cn3)c(OC)c2O)ccc(C(=O)O)c1O [Albi-3]", "OBSERVED_PROPERTY": "pEC50", "TEST_RESULT": 7.80}
{"MOLECULE": "COc1c(NC(=O)c2ccc(NC(=O)c3ccc(NC(=O)[C@H](Cc4c[nH]nn4)NC(=O)c4ccc(NC(=O)c5ccc6cc(O)ccc6c5)cc4)cn3)c(OCCN)c2O)ccc(C(=O)O)c1O [Albi-2]", "OBSERVED_PROPERTY": "pEC50", "TEST_RESULT": 6.68}

* * *

System: B. subtilis DSM10
Assay: MIC determination (microdilution, M07-A9)
Format: cell-based
Conditions: Bacillus subtilis, second value in cell (biological replicate)
OBSERVED_PROPERTY: MIC

{"MOLECULAR_STRING": "CC(C)Oc1ccccc1NC(=O)c1ccc(NC(=O)[C@H](Cc2c[nH]nn2)NC(=O)c2ccc(NC(=O)c3ccc(C#N)cc3)cn2)cn1", "MEASURED_ON": "B. subtilis DSM10", "OBSERVED_PROPERTY": "MIC", "TEST_RESULT": "> 8 µg/mL"}
{"MOLECULAR_STRING": "COc1ccccc1NC(=O)c1ccc(NC(=O)[C@H](Cc2c[nH]nn2)NC(=O)c2ccc(NC(=O)c3ccc(C#N)cc3)cn2)cn1", "MEASURED_ON": "B. subtilis DSM10", "OBSERVED_PROPERTY": "MIC", "TEST_RESULT": "> 8 µg/mL"}
{"MOLECULAR_STRING": "COc1c(NC(=O)c2ccc(NC(=O)[C@H](Cc3c[nH]nn3)NC(=O)c3ccc(NC(=O)c4ccc(C#N)cc4)cc3)cn2)ccc(F)c1F", "MEASURED_ON": "B. subtilis DSM10", "OBSERVED_PROPERTY": "MIC", "TEST_RESULT": "> 8 µg/mL"}
{"MOLECULAR_STRING": "COc1c(NC(=O)c2ccc(NC(=O)c3ccc(NC(=O)[C@H](Cc4c[nH]nn4)NC(=O)c4ccc(NC(=O)/C(C)=C/c5ccc(O)cc5)cc4)cn3)c(OC)c2O)ccc(C(=O)O)c1O", "MEASURED_ON": "B. subtilis DSM10", "OBSERVED_PROPERTY": "MIC", "TEST_RESULT": "0.063 µg/mL"}
{"MOLECULAR_STRING": "COc1ccccc1NC(=O)c1ccc(NC(=O)[C@H](Cc2c[nH]nn2)NC(=O)c2ccc(NC(=O)c3ccc(C#N)cc3)cc2)cn1", "MEASURED_ON": "B. subtilis DSM10", "OBSERVED_PROPERTY": "MIC", "TEST_RESULT": "> 8 µg/mL"}
{"MOLECULAR_STRING": "CC(C)Oc1c(NC(=O)c2ccc(NC(=O)[C@H](Cc3c[nH]nn3)NC(=O)c3ccc(NC(=O)c4ccc(C#N)cc4)cn3)cn2)ccc(C(=O)Nc2ccc(C(=O)O)cc2)c1O", "MEASURED_ON": "B. subtilis DSM10", "OBSERVED_PROPERTY": "MIC", "TEST_RESULT": "0.063 µg/mL"}
